# Test system: primary human hepatic stellate cells (donor 1)
# test.summary: scaled lipid accumulation score (0 = DMSO-like, 1 = nortriptyline-like); higher = stronger HSC inactivation (lipid re-accumulation), active = hit call of the paper
# measurement.parameters: library stock concentration: 1 mM; 48 h
The whole screen tested about 5,800 compounds, of which about 620 (11%) showed activity. The entries come from a sample that favours actives as a whole.

[
  {
    "compound": "N[C@@H](Cc1ccc(O)c([N+](=O)[O-])c1)C(=O)O",
    "scaled lipid accumulation score": "0.016 (inactive)"
  },
  {
    "compound": "CCOC(=O)c1ccnc(C(=O)OCC)c1",
    "scaled lipid accumulation score": "≤ 0 (inactive)"
  },
  {
    "compound": "CCCc1cc(C(=O)c2ccc(-c3ccccc3)cc2)ccc1OCCCN1CCCc2c(OC(C)(C)C(=O)O)cccc21",
    "scaled lipid accumulation score": "≤ 0 (inactive)"
  },
  {
    "compound": "CCCCCC#CCC#CCC#CCCCCCCC(=O)O",
    "scaled lipid accumulation score": "≤ 0 (inactive)"
  },
  {
    "compound": "CCCCC[C@H](O)/C=C/[C@@H]1[C@H](C/C=C\\CCCC(=O)O)[C@@H](O)C[C@H]1O",
    "scaled lipid accumulation score": "≤ 0 (inactive)"
  },
  {
    "compound": "COc1ccc(/C=C/c2ccccc2F)cc1",
    "scaled lipid accumulation score": "0.063 (inactive)"
  },
  {
    "compound": "CCCCC[C@H](O)/C=C/[C@@H]1[C@@H](C/C=C/CCCC(=O)O)[C@H](O)C[C@H]1O [5-trans Prostaglandin F2.beta.]",
    "scaled lipid accumulation score": "≤ 0 (inactive)"
  },
  {
    "compound": "COc1ccc2cc(CC(=O)O)ccc2c1",
    "scaled lipid accumulation score": "0.002 (inactive)"
  },
  {
    "compound": "CCCCC[C@H](O)/C=C/[C@H]1C=CC(=O)[C@H]1C/C=C\\CCCC(=O)O",
    "scaled lipid accumulation score": "≤ 0 (inactive)"
  }
]
